Assay: Plasma protein binding (Rapid Equilibrium Dialysis)
Type: in vitro ADME, human
Settings: human
Experimental: Molecule fraction fraction Post-Assay Table S5. Plasma protein binding Protein binding was measured in human plasma using Rapid Equilibrium Dialysis (RED) devices (Pierce) according to the manufacturers’ instructions; 5 µM compounds in plasma were dialysed against PBS for 4 h at 37C. Compounds were detected by LC-MS/MS in plasma and PBS
// values below are reported recovery at 4 h, 5 µM

| molecule | unit.descriptor | recovery at 4 h, 5 µM |
| --- | --- | --- |
| CCCCNC(=S)Nc1nccs1 | % | 83.8 |
| CCCCNC(=S)Nc1nc2ccccc2o1 [Molecule 12, 1-(benzo[d]oxazol-2-yl)-3-butylthiourea] | % | 80.1 |
| CCCCNC(=S)Nc1nc(C)co1 | % | 83.9 |
| COCCCNC(=S)Nc1nc2ccccc2s1 | % | 76.5 |
| CCCCNC(=S)Nc1nc2ccccc2s1 [Molecule 1, 1-(benzo[d]thiazol-2-yl)-3-butylthiourea] | % | 84.3 |

* * *

Tested on: HepG2 cells
Assay: HepG2 cytotoxicity
Type: cell-based, human
Conditions: Homo sapiens, HepG2, 72 h, 3 days exposure, CellTiter-Glo
pIC50: −log10 of the molar value.
Use T when the recorded pIC50 is no lower than 5; use F when it is lower.

| compound | cat |
| --- | --- |
| CCCCNC(=S)Nc1nc(C)c(C)s1 [Molecule 17] | F |
| CCCCNC(=S)Nc1nc2c(Cl)cccc2s1 [Molecule 13] | F |
| CCCNC(=S)Nc1nc2c(Cl)cccc2s1 [Molecule 31] | F |
| CCCCNC(=S)Nc1nc2ccccc2s1 [Molecule 1, 1-(benzo[d]thiazol-2-yl)-3-butylthiourea] | F |
| Cc1ccc(C(=O)Nc2nc3ccccc3s2)cc1 [Molecule 3] | F |
| CCCCNC(=S)Nc1nc(C)co1 [Molecule 21, 1-butyl-3-(4-methyloxazol-2-yl)thiourea] | F |
| CCCCNC(=S)Nc1nc(-c2ccccc2)co1 [Molecule 23, 1-butyl-3-(4-phenyloxazol-2-yl)thiourea] | F |
| COc1ccc(NC(=S)Nc2nc3ccccc3s2)cc1 [Molecule 7] | F |
| CCCCNC(=S)Nc1ccccn1 [Molecule 9] | F |
| CCCCCC(=O)Nc1nc2ccccc2s1 [Molecule 2] | F |
| CCCCNC(=S)Nc1nccs1 [Molecule 14, 1-butyl-3-(thiazol-2-yl)thiourea] | F |
| CCCCNC(=S)Nc1nccc(C)n1 [Molecule 20] | F |
| CCCCNC(=S)Nc1nc2ccccc2[nH]1 [Molecule 11] | T |
| CCCCSC(=S)Nc1nc2ccccc2s1 [Molecule 25] | F |
| CCCCNC(=S)Nc1nc2ccccc2o1 [Molecule 12, 1-(benzo[d]oxazol-2-yl)-3-butylthiourea] | F |
| COc1ccc(NC(=S)Nc2nccs2)cc1 [Molecule 8] | F |
| CCCCNC(=O)Nc1nc2ccccc2s1 [Molecule 5] | F |
| CCCCN(C)C(=S)Nc1nc2ccccc2s1 [Molecule 27] | T |
| S=C(NCc1ccccc1)Nc1nc2ccccc2s1 [Molecule 6] | T |

* * *

Assay: Microsomal metabolic stability
Conditions: human, microsomes, pH 7.4

| compound | half-life at 1 µM |
| --- | --- |
| COc1ccc2c(c1)[C@]13CCCC[C@@H]1[C@H](C2)N(C)CC3 [Dextromethorphan, dextromethorphan, reference compound] | 1.97 h |

* * *

Biological target: CYP2C9 (Homo sapiens)
Sequence (P11712 whole entry): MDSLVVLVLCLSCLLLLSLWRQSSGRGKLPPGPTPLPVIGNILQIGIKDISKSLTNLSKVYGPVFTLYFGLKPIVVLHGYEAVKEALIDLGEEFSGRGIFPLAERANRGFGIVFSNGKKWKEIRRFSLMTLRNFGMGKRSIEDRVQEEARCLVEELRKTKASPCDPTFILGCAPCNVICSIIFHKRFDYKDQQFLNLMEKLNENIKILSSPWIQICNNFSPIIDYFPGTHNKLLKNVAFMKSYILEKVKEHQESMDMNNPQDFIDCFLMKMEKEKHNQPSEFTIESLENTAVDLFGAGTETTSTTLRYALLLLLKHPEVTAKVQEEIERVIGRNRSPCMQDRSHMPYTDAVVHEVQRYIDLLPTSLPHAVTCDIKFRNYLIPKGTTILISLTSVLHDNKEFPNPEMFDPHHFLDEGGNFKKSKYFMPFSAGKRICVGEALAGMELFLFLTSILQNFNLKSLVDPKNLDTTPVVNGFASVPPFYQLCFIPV
pIC50: −log10 of the molar value.

| molecule | pIC50 |
| --- | --- |
| COCCCNC(=S)Nc1nc2ccccc2s1 | < 4.70 |
| CCCCNC(=S)Nc1nc(C)co1 | < 4.70 |
| CCCCNC(=S)Nc1nc2ccccc2o1 [Molecule 12, 1-(benzo[d]oxazol-2-yl)-3-butylthiourea] | < 4.70 |
| CCCCNC(=S)Nc1nccs1 | 4.88 |
| CCCCNC(=S)Nc1nc2ccccc2s1 [Molecule 1, 1-(benzo[d]thiazol-2-yl)-3-butylthiourea] | < 4.70 |

* * *

Test system: Caco-2 cells
Assay: Caco-2 permeability
Settings: B→A; assay duration 2 hr
// assign True if dQ/dt (rate of permeation), mean falls strictly below 0.0001, else False (ties count as False)

| compound | cat |
| --- | --- |
| CCCCNC(=S)Nc1nc2ccccc2o1 [Molecule 12, 1-(benzo[d]oxazol-2-yl)-3-butylthiourea] | True |
| CCCCNC(=S)Nc1nc2ccccc2s1 [Molecule 1, 1-(benzo[d]thiazol-2-yl)-3-butylthiourea] | True |
| CCCCNC(=S)Nc1nccs1 [Molecule 14, 1-butyl-3-(thiazol-2-yl)thiourea] | False |
| CCCCNC(=S)Nc1nc(C)co1 [Molecule 21, 1-butyl-3-(4-methyloxazol-2-yl)thiourea] | False |
| COCCCNC(=S)Nc1nc2ccccc2s1 [Molecule 24] | False |

* * *

System: M. tuberculosis strain under expressing LepB (LepB-UE)
Assay: microbe, parasite or virus in culture
Type: cell-based, Mycobacterium tuberculosis
// assign 1.0 if MIC LepB-UE falls strictly below 10 µM, else 0.0 (ties count as 0.0)

| compound | cat |
| --- | --- |
| CCCCNC(=S)Nc1nc2c(Cl)cccc2s1 | 1.0 |
| CCCNC(=S)Nc1nc2c(Cl)cccc2s1 | 0.0 |
| Cc1coc(NC(=S)NCC(C)C)n1 | 0.0 |
| CCCCNC(=S)Nc1nc(C)co1 | 1.0 |
| CCCCNC(=S)Nc1ncc(C)o1 | 1.0 |
| CCCCN(C)C(=S)Nc1nc2ccccc2s1 | 0.0 |
| CCCCNC(=O)Nc1nc2ccccc2s1 | 0.0 |
| CCCCNC(=S)Nc1nc2ccccc2o1 [Molecule 12, 1-(benzo[d]oxazol-2-yl)-3-butylthiourea] | 0.0 |
| CCCCCCNc1nc2ccccc2s1 | 0.0 |
| CCCCNC(=S)Nc1nc(C)c[nH]1 | 0.0 |
| CCCCNC(=S)NC1=NCCS1 | 0.0 |
| CCCCNC(=S)Nc1nccs1 | 0.0 |
| CC(C)CNC(=S)Nc1nc2ccccc2s1 | 0.0 |

* * *

Test system: Caco-2 cells
Experiment: Caco-2 permeability
Conditions: A→B; assay duration 1 hr
// assign YES if dQ/dt (rate of permeation), mean falls strictly below 0.0003, else NO (ties count as NO)

| molecule | cat |
| --- | --- |
| CCCCNC(=S)Nc1nc(C)co1 [Molecule 21, 1-butyl-3-(4-methyloxazol-2-yl)thiourea] | NO |
| CCCCNC(=S)Nc1nc2ccccc2s1 [Molecule 1, 1-(benzo[d]thiazol-2-yl)-3-butylthiourea] | YES |
| CCCCNC(=S)Nc1nc2ccccc2o1 [Molecule 12, 1-(benzo[d]oxazol-2-yl)-3-butylthiourea] | YES |
| COCCCNC(=S)Nc1nc2ccccc2s1 [Molecule 24] | YES |
| CCCCNC(=S)Nc1nccs1 [Molecule 14, 1-butyl-3-(thiazol-2-yl)thiourea] | YES |

* * *

Test system: HepG2 cells
Experiment: HepG2 cytotoxicity
Type: cell-based, human
Conditions: Homo sapiens, HepG2, 72 h, 3 days exposure, CellTiter-Glo
// values below are reported IC50

| molecule | IC50 |
| --- | --- |
| CCCCNC(=S)Nc1nc2cccc(Cl)c2o1 | 13 µM |
| S=C(NCCc1ccccc1)Nc1nc2ccccc2s1 | 8 µM |
| c1ccc2scnc2c1 | 7.6 µM |
| Cc1coc(NC(=S)NCC(C)C)n1 | 27 to 78 µM |
